Each entry below carries its reported pIC50.
Test system: HCT-116
test-summary: Antiproliferative activity against ATM-proficient human HCT-116 cells assessed as reduction in cell viability incubated for 3 days by MTT assay
Format: functional, cell-based
test-conditions: HCT-116, 72 h
Field pIC50 (float): negative decimal logarithm of the concentration in molar.

C[C@@H]1COCCN1c1nc(-c2cccc3[nH]ccc23)nc2c1CN(C(=O)c1ccc3c(c1)OCO3)C2(C)C : 6.71

Query: Record lookup: for HCT-116, what pIC50 belongs to CC(C)n1c(=O)n(C)c2cnc3cc(F)c(-c4ccc(OCCCN5CCCCC5)nc4)cc3c21 ?
Response: 4.98

Query: Record lookup: for HCT-116, what pIC50 belongs to C[C@@H]1COCCN1c1cc(C2(S(C)(=O)=O)CC2)nc(-c2cccc3[nH]ccc23)n1 ?
Response: 6.59

Query: Record lookup: for HCT-116, what pIC50 belongs to C[C@@H]1COCCN1c1nc(-c2cccc3[nH]ccc23)nc2c1CN(C(=O)c1cccc(S(C)(=O)=O)c1)C2(C)C ?
Response: 7.39
